Reference for the values: paper PMC5400543

Target Desc: PPARδ (Homo sapiens)
Assay Details: In vitro PPARδ transactivation assay (Gal4-hPPARδLBD luciferase reporter in 293E cells)
Experimental Conditions: 10^−5 M, 24 h, Csamples/Ccontrol, mean±SEM
I would appreciate it if you labelled entries YES when PPARδ Activation Fold is 1 or higher, otherwise NO.

Q: Entry c1ccc2c(c1)c1ccccc1n2CCOc1ccc(OCc2nn[nH]n2)cc1 [10b] : is its PPARδ Activation Fold no less than 1?
Result: YES

Q: Param item: CC(C)(Oc1ccc(OCCn2ccc3ccccc32)cc1)C(=O)O
Result: NO

Now consider a different compound.
Q: Entry CC(C)(Oc1ccc(OCCn2c3ccccc3c3ccccc32)cc1)C(=O)O : is its PPARδ Activation Fold no less than 1?
Result: YES

---

Target Desc: PPARδ (Homo sapiens, UniProt Q03181)
Sequence (Q03181 211-439 limits assumed): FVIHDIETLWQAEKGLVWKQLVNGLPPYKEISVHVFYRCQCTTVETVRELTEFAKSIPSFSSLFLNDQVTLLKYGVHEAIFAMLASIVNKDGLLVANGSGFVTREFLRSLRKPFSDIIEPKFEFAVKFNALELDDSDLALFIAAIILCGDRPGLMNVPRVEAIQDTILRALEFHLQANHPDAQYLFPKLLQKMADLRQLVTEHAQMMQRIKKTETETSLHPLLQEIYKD
Assay Details: In vitro PPARδ transactivation assay (Gal4-hPPARδLBD luciferase reporter in 293E cells)
Experimental Conditions: 10^−5 M, 24 h, Csamples/Ccontrol, mean±SEM
I would appreciate it if you labelled entries Fulfilled when PPARδ Activation Fold is 1 or higher, otherwise Not fulfilled.

Q: Entry CC(C)(Oc1ccc(OCC(=O)c2ccccc2)cc1)C(=O)O [6n] : is its PPARδ Activation Fold no less than 1?
Result: Fulfilled

Further cases:
Q: Entry CC(C)(Oc1ccc(OCCCc2ccccc2)cc1)C(=O)O [6m] : is its PPARδ Activation Fold no less than 1?
Result: Fulfilled

Q: Param item: CC(C)(Oc1ccc(OCCCn2ccc3ccccc32)cc1)C(=O)O [6c]
Result: Not fulfilled

Q: Param item: c1cc(OCCn2ccc3ccccc32)cc(OCc2nn[nH]n2)c1 [10g]
Result: Not fulfilled

Q: Param item: CC(C)(Oc1ccc(OCCCn2cnc3ccccc32)cc1)C(=O)O [6e]
Result: Fulfilled

Q: Param item: c1cncc(COc2cccc(OCc3nn[nH]n3)c2)c1 [10l]
Result: Fulfilled

Q: Param item: c1ccc2c(c1)ccn2CCOc1ccc(OCc2nn[nH]n2)cc1 [10a]
Result: Fulfilled

---

Target Desc: PPARγ (Homo sapiens, UniProt P37231)
Sequence (P37231 238-503 limits assumed): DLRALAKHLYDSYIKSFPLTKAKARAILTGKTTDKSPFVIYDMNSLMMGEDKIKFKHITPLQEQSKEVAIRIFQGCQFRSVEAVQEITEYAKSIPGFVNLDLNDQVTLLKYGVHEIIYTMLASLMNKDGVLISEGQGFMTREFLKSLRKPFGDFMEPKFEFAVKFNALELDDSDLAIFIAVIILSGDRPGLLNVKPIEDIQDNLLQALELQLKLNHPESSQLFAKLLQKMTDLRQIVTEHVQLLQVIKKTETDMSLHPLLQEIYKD
Assay Details: In vitro PPARγ transactivation assay (Gal4-hPPARγLBD luciferase reporter in 293E cells)
Experimental Conditions: 10^−5 M, 24 h, Csamples/Ccontrol, mean±SEM
Measured Parameter: PPARγ Activation Fold
Give the figure only, with no unit attached.

Q: Please give the measured PPARγ Activation Fold for this compound: c1ccc(CCCOc2ccc(OCc3nn[nH]n3)cc2)cc1 [10e]
Result: 1.93

Q: Param item: c1cc(OCCn2c3ccccc3c3ccccc32)cc(OCc2nn[nH]n2)c1 [10h]
Result: 26.81

Q: Param item: c1ccc2c(c1)ccn2CCOc1ccc(OCc2nn[nH]n2)cc1 [10a]
Result: 1.30

Q: Param item: c1ccc2c(c1)ccn2CCCOc1ccc(OCc2nn[nH]n2)cc1 [10c]
Result: 0.96

Q: Param item: CC(C)(Oc1cccc(OCCCc2ccccc2)c1)C(=O)O [6k]
Result: 1.62

Further cases:
Q: Please give the measured PPARγ Activation Fold for this compound: CC(C)(Oc1ccc(OCCCn2cnc3ccccc32)cc1)C(=O)O [6e]
Result: 1.26

Q: Param item: CC(C)(Oc1cccc(OCCCn2c3ccccc3c3ccccc32)c1)C(=O)O [6i]
Result: 2.87

---

Target Desc: PPARδ (Homo sapiens, UniProt Q03181)
Assay Details: In vitro PPARδ transactivation assay (Gal4-hPPARδLBD luciferase reporter in 293E cells)
Experimental Conditions: 10^−5 M, 24 h, Csamples/Ccontrol, mean±SEM
I would appreciate it if you labelled entries Y when PPARδ Activation Fold is 0.9 or higher, otherwise N.

Would you please look over these solved cases?
Q: Entry CC(C)(Oc1cccc(OCCCc2ccccc2)c1)C(=O)O : is its PPARδ Activation Fold no less than 0.9?
Result: Y

Q: Param item: c1ccc2c(c1)c1ccccc1n2CCCOc1ccc(OCc2nn[nH]n2)cc1 [10d]
Result: Y

Now consider a different compound.
Q: Entry CC(C)(Oc1cccc(OCc2cccnc2)c1)C(=O)O : is its PPARδ Activation Fold no less than 0.9?
Result: Y

---

Measured PPARδ Activation Fold by item
Target Desc: PPARδ (Homo sapiens, UniProt Q03181)
Assay Details: In vitro PPARδ transactivation assay (Gal4-hPPARδLBD luciferase reporter in 293E cells)
Experimental Conditions: 10^−5 M, 24 h, Csamples/Ccontrol, mean±SEM
Give the figure only, with no unit attached.

Reference set (3 entries):
Q: Please give the measured PPARδ Activation Fold for this compound: c1cc(OCCn2c3ccccc3c3ccccc32)cc(OCc2nn[nH]n2)c1 [10h]
Result: 1.16

Q: Param item: c1ccc(CCCOc2cccc(OCc3nn[nH]n3)c2)cc1 [10k]
Result: 1.24

Q: Param item: CC(C)(Oc1ccc(OCCCn2c3ccccc3c3ccccc32)cc1)C(=O)O
Result: 1.13

Further cases:
Q: Please give the measured PPARδ Activation Fold for this compound: c1ccc(CCCOc2ccc(OCc3nn[nH]n3)cc2)cc1 [10e]
Result: 1.26

Q: Param item: CC(C)(Oc1cccc(OCCn2c3ccccc3c3ccccc32)c1)C(=O)O
Result: 1.28

---

Target Desc: PPARα (Homo sapiens)
Construct: pcDNA3.1-hPPARαLBD-Gal4DB; expressed in transfected cells; host or cells: 293E cells
Sequence (Q07869 239-466 limits assumed): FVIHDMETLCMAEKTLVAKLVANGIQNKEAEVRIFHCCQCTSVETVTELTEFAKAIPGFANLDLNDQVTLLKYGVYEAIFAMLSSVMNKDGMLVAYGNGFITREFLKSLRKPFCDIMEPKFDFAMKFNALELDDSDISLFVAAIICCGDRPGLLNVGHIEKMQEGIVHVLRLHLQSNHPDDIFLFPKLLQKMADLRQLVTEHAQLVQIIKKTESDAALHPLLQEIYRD
Assay Details: In vitro PPARα transactivation assay (Gal4-hPPARαLBD luciferase reporter in 293E cells)
Format: cell-based
Experimental Conditions: 10^−5 M, 24 h, Csamples/Ccontrol, mean±SEM
Measured PPARα Activation Fold by item
Give the figure only, with no unit attached.

Reference set (5 entries):
Q: # value lookup — system PPARα (Homo sapiens), readout PPARα Activation Fold, item CC(C)(Oc1ccc(OCCCn2c3ccccc3c3ccccc32)cc1)C(=O)O
Result: 1.96

Q: Param item: CC(C)(Oc1cccc(OCC(=O)c2ccccc2)c1)C(=O)O
Result: 1.58

Q: Param item: c1ccc2c(c1)ccn2CCOc1ccc(OCc2nn[nH]n2)cc1 [10a]
Result: 0.76

Q: Param item: c1cc(OCCCn2ccc3ccccc32)cc(OCc2nn[nH]n2)c1 [10i]
Result: 0.89

Q: Param item: CC(C)(Oc1cccc(OCCCn2c3ccccc3c3ccccc32)c1)C(=O)O
Result: 1.32

Now for another entry.
Q: # value lookup — system PPARα (Homo sapiens), readout PPARα Activation Fold, item c1ccc2c(c1)c1ccccc1n2CCCOc1ccc(OCc2nn[nH]n2)cc1 [10d]
Result: 0.50

---

Measured PPARγ Activation Fold by item
Target Desc: PPARγ (Homo sapiens, UniProt P37231)
Assay Details: In vitro PPARγ transactivation assay (Gal4-hPPARγLBD luciferase reporter in 293E cells)
Experimental Conditions: 10^−5 M, 24 h, Csamples/Ccontrol, mean±SEM
Give the figure only, with no unit attached.

Reference set (5 entries):
Q: Please give the measured PPARγ Activation Fold for this compound: CC(C)(Oc1ccc(OCCCn2c3ccccc3c3ccccc32)cc1)C(=O)O [6d]
Result: 1.57

Q: Param item: CC(C)(Oc1cccc(OCc2cccnc2)c1)C(=O)O [6l]
Result: 1.34

Q: Param item: CC(C)(Oc1ccc(OCCn2ccc3ccccc32)cc1)C(=O)O [6a]
Result: 1.21

Q: Param item: c1ccc2c(c1)c1ccccc1n2CCCOc1ccc(OCc2nn[nH]n2)cc1 [10d]
Result: 0.96

Q: Param item: c1cc(OCCCn2ccc3ccccc32)cc(OCc2nn[nH]n2)c1 [10i]
Result: 1.19

Further cases:
Q: Please give the measured PPARγ Activation Fold for this compound: CC(C)(Oc1cccc(OCCCn2ccc3ccccc32)c1)C(=O)O [6h]
Result: 1.57

Q: Param item: c1ccc2c(c1)c1ccccc1n2CCOc1ccc(OCc2nn[nH]n2)cc1 [10b]
Result: 1.26

Q: Param item: CC(C)(Oc1cccc(OCCCn2cnc3ccccc32)c1)C(=O)O [6j]
Result: 1.17

Q: Param item: CC(C)(Oc1ccc(OCCCn2ccc3ccccc32)cc1)C(=O)O [6c]
Result: 1.40

Q: Param item: CC(C)(Oc1cccc(OCCn2ccc3ccccc32)c1)C(=O)O [6o]
Result: 3.01

Q: Param item: c1ccc(CCCOc2cccc(OCc3nn[nH]n3)c2)cc1 [10k]
Result: 1.46

Q: Param item: CC(C)(Oc1cccc(OCC(=O)c2ccccc2)c1)C(=O)O [6f]
Result: 1.22

Q: Param item: c1cc(OCCn2ccc3ccccc32)cc(OCc2nn[nH]n2)c1 [10g]
Result: 2.83

Q: Param item: CC(C)(Oc1ccc(OCC(=O)c2ccccc2)cc1)C(=O)O [6n]
Result: 1.31

Q: Param item: c1cc(OCCCn2c3ccccc3c3ccccc32)cc(OCc2nn[nH]n2)c1 [10j]
Result: 0.69

Q: Param item: CC(C)(Oc1ccc(OCCCc2ccccc2)cc1)C(=O)O [6m]
Result: 2.26

Q: Param item: CC(C)(Oc1cccc(OCCn2c3ccccc3c3ccccc32)c1)C(=O)O [6g]
Result: 18.55
